Hepatotoxicity: reported HepSE_jaundice for various compounds.

{"compound": "CC(=O)[C@]1(O)Cc2c(O)c3c(c(O)c2[C@@H](O[C@H]2C[C@H](N)[C@H](O)[C@H](C)O2)C1)C(=O)c1ccccc1C3=O", "system tested": "Hepatotoxicity", "HepSE_jaundice": 0}
{"compound": "OC[C@H]1O[C@@H](O[C@@H]2[C@@H](CO)O[C@](O)(CO)[C@H]2O)[C@H](O)[C@@H](O)[C@H]1O", "system tested": "Hepatotoxicity", "HepSE_jaundice": 0}
{"compound": "O=C(O)CCCCCCCC(=O)O", "system tested": "Hepatotoxicity", "HepSE_jaundice": 0}
{"compound": "Oc1ccc2c(c1)[C@@]13CCCC[C@@]1(O)[C@@H](C2)N(CC1CCC1)CC3", "system tested": "Hepatotoxicity", "HepSE_jaundice": 0}
{"compound": "COc1ccc([C@@H]2Sc3ccccc3N(CCN(C)C)C(=O)[C@@H]2OC(C)=O)cc1", "system tested": "Hepatotoxicity", "HepSE_jaundice": 0}
{"compound": "CC(CCc1ccccc1)NCC(O)c1ccc(O)c(C(N)=O)c1 (stereo unspecified)", "system tested": "Hepatotoxicity", "HepSE_jaundice": 1}
{"compound": "COC(=O)Nc1nc2ccc(C(=O)c3ccccc3)cc2[nH]1", "system tested": "Hepatotoxicity", "HepSE_jaundice": 0}
{"compound": "C[C@@H](O[C@H]1OCCN(Cc2n[nH]c(=O)[nH]2)[C@H]1c1ccc(F)cc1)c1cc(C(F)(F)F)cc(C(F)(F)F)c1 [APREPITANT]", "system tested": "Hepatotoxicity", "HepSE_jaundice": 0}
{"compound": "O=NN(CCCl)C(=O)NC1CCCCC1", "system tested": "Hepatotoxicity", "HepSE_jaundice": 0}
{"compound": "CN(C)[C@@H]1C(O)=C(C(N)=O)C(=O)[C@@]2(O)C(O)=C3C(=O)c4c(O)ccc(Cl)c4[C@@H](O)[C@H]3C[C@@H]12", "system tested": "Hepatotoxicity", "HepSE_jaundice": 0}
{"compound": "C=CCC1(C(C)C#CCC)C(=O)N=C(O)N(C)C1=O (stereo unspecified)", "system tested": "Hepatotoxicity", "HepSE_jaundice": 0}
{"compound": "C[C@]12COC(=O)C[C@@H]1CC[C@@H]1[C@@H]2CC[C@@]2(C)[C@H]1CC[C@]2(C)O", "system tested": "Hepatotoxicity", "HepSE_jaundice": 1}
{"compound": "CC1(C)O[C@@H]2C[C@H]3[C@@H]4C[C@H](F)C5=CC(=O)CC[C@]5(C)[C@H]4[C@@H](O)C[C@]3(C)[C@]2(C(=O)CO)O1 [FLURANDRENOLIDE]", "system tested": "Hepatotoxicity", "HepSE_jaundice": 0}
{"compound": "COc1cc2nc(N3CCN(C(=O)c4ccco4)CC3)nc(N)c2cc1OC", "system tested": "Hepatotoxicity", "HepSE_jaundice": 0}
{"compound": "C[C@@H](O)[C@H]1C(=O)N2C(C(=O)O)=C(S[C@@H]3CN[C@H](C(=O)Nc4cccc(C(=O)O)c4)C3)[C@H](C)[C@H]12", "system tested": "Hepatotoxicity", "HepSE_jaundice": 1}
{"compound": "CCCCC[C@](C)(O)/C=C/[C@@H]1[C@@H](C/C=C/CCCC(=O)O)[C@@H](O)C[C@H]1O", "system tested": "Hepatotoxicity", "HepSE_jaundice": 0}
{"compound": "CO/N=C1\\CN(c2nc3c(cc2F)c(=O)c(C(=O)O)cn3C2CC2)CC1CN (stereo unspecified)", "system tested": "Hepatotoxicity", "HepSE_jaundice": 1}
{"compound": "COc1cc2ncnc(Nc3ccc(F)c(Cl)c3)c2cc1OCCCN1CCOCC1", "system tested": "Hepatotoxicity", "HepSE_jaundice": 0}
{"compound": "CCCCCN(C)CCC(O)(P(=O)(O)O)P(=O)(O)O", "system tested": "Hepatotoxicity", "HepSE_jaundice": 0}
{"compound": "Cn1c(=O)c2c(ncn2C)n(C)c1=O", "system tested": "Hepatotoxicity", "HepSE_jaundice": 0}
{"compound": "O=C(O)c1ccc(-n2nc(-c3ccccc3O)nc2-c2ccccc2O)cc1", "system tested": "Hepatotoxicity", "HepSE_jaundice": 0}
{"compound": "Nc1nc(Cl)nc2c1ncn2[C@@H]1O[C@H](CO)[C@@H](O)[C@@H]1F", "system tested": "Hepatotoxicity", "HepSE_jaundice": 1}
{"compound": "CC(C)[C@H](N)C(=O)OCC(CO)OCn1cnc2c(=O)nc(N)[nH]c21 (stereo partly specified)", "system tested": "Hepatotoxicity", "HepSE_jaundice": 1}
{"compound": "CCN[C@H]1C[C@H](C)S(=O)(=O)c2sc(S(N)(=O)=O)cc21 [DORZOLAMIDE]", "system tested": "Hepatotoxicity", "HepSE_jaundice": 0}
{"compound": "CCOC(=O)[C@H](CCc1ccccc1)N[C@@H](C)C(=O)N1Cc2ccccc2C[C@H]1C(=O)O", "system tested": "Hepatotoxicity", "HepSE_jaundice": 0}
{"compound": "O=c1[nH]cnc2c1ncn2[C@H]1CC[C@@H](CO)O1", "system tested": "Hepatotoxicity", "HepSE_jaundice": 0}

====

Hepatotoxicity: reported HepSE_liver disease for various compounds.
experimental readout: HepSE_liver disease

{"compound": "O=C(NCC(O)CO)c1c(I)c(C(=O)NCC(O)CO)c(I)c(N(CCO)C(=O)CO)c1I (stereo unspecified) [IOVERSOL]", "value measured": 0}
{"compound": "Nc1cc(N2CCCCC2)nc(N)[n+]1[O-] [MINOXIDIL]", "value measured": 0}
{"compound": "CN(C)C(=O)Oc1ccc[n+](C)c1 [PYRIDOSTIGMINE]", "value measured": 0}
{"compound": "Nc1ccn(C[C@@H](CO)OCP(=O)(O)O)c(=O)n1.O.O [CIDOFOVIR]", "value measured": 0}
{"compound": "CC(=O)OCC(=O)[C@@]12OC(C)(C)O[C@@H]1C[C@H]1[C@@H]3C[C@H](F)C4=CC(=O)C=C[C@]4(C)[C@@]3(F)[C@@H](O)C[C@@]12C [FLUOCINONIDE]", "value measured": 0}
{"compound": "Cc1ccc(C(=O)c2ccc(CC(=O)O)n2C)cc1 [TOLMETIN]", "value measured": 0}
{"compound": "CC(C)N(CCC(C(N)=O)(c1ccccc1)c1ccccn1)C(C)C (stereo unspecified) [DISOPYRAMIDE]", "value measured": 0}
{"compound": "Nc1nc2[nH]cc(CCc3ccc(C(=O)N[C@@H](CCC(=O)O)C(=O)O)cc3)c2c(=O)[nH]1 [PEMETREXED]", "value measured": 0}
{"compound": "COC1=CC(=O)C[C@@H](C)[C@]12Oc1c(Cl)c(OC)cc(OC)c1C2=O [GRISEOFULVIN]", "value measured": 0}
{"compound": "CC(C)c1nc(CN(C)C(=O)N[C@H](C(=O)N[C@@H](Cc2ccccc2)C[C@H](O)[C@H](Cc2ccccc2)NC(=O)OCc2cncs2)C(C)C)cs1 [RITONAVIR]", "value measured": 0}
{"compound": "COc1ccccc1Oc1c(NS(=O)(=O)c2ccc(C(C)(C)C)cc2)nc(-c2ncccn2)nc1OCCO [BOSENTAN]", "value measured": 0}
{"compound": "COc1ccccc1OCC(O)COC(N)=O (stereo unspecified) [METHOCARBAMOL]", "value measured": 0}
{"compound": "Nc1nc2ccc(OC(F)(F)F)cc2s1 [RILUZOLE]", "value measured": 0}
{"compound": "CCCc1nc2c(C)cc(-c3nc4ccccc4n3C)cc2n1Cc1ccc(-c2ccccc2C(=O)O)cc1", "value measured": 1}
{"compound": "COc1cc([C@@H]2c3cc4c(cc3[C@@H](O[C@@H]3O[C@@H]5CO[C@@H](c6cccs6)O[C@H]5[C@H](O)[C@H]3O)[C@H]3COC(=O)[C@H]23)OCO4)cc(OC)c1O [TENIPOSIDE]", "value measured": 0}
{"compound": "CN1C(CCl)Nc2cc(Cl)c(S(N)(=O)=O)cc2S1(=O)=O (stereo unspecified) [METHYCLOTHIAZIDE]", "value measured": 0}
{"compound": "Nc1cccc2c1CN(C1CCC(=O)NC1=O)C2=O (stereo unspecified) [LENALIDOMIDE]", "value measured": 0}
{"compound": "CNC(=C[N+](=O)[O-])NCCSCc1ccc(CN(C)C)o1 [RANITIDINE]", "value measured": 1}
{"compound": "N=C(N)NCCC[C@H](N)C(=O)O [ARGININE]", "value measured": 0}
{"compound": "c1ccc2c(c1)CCCC2C1=NCCN1 (stereo unspecified) [TETRAHYDROZOLINE]", "value measured": 0}
{"compound": "CN1C(C(=O)Nc2ccccn2)=C(O)c2ccccc2S1(=O)=O [PIROXICAM]", "value measured": 0}
{"compound": "C[C@]12CCC(=O)C=C1CC[C@H]1[C@@H]3CC[C@](O)(C(=O)CO)[C@@]3(C)C[C@H](O)[C@@]12F [FLUDROCORTISONE]", "value measured": 0}
{"compound": "CN1CCN(CCCN2c3ccccc3Sc3ccc(C(F)(F)F)cc32)CC1 [TRIFLUOPERAZINE]", "value measured": 0}
{"compound": "Cc1nccn1CC1CCc2c(c3ccccc3n2C)C1=O (stereo unspecified) [ONDANSETRON]", "value measured": 1}
{"compound": "FC(F)OC(F)(F)C(F)Cl (stereo unspecified)", "value measured": 0}
{"compound": "CC(C)[C@H]1CC[C@H](C(=O)N[C@H](Cc2ccccc2)C(=O)O)CC1 [NATEGLINIDE]", "value measured": 1}
{"compound": "NC[C@H](O)c1ccc(O)c(O)c1 [NOREPINEPHRINE]", "value measured": 0}
{"compound": "CCC1=C(C)CN(C(=O)NCCc2ccc(S(=O)(=O)NC(=O)N[C@H]3CC[C@H](C)CC3)cc2)C1=O [GLIMEPIRIDE]", "value measured": 0}
{"compound": "C=CC[C@@H]1/C=C(\\C)C[C@H](C)C[C@H](OC)[C@H]2O[C@@](O)(C(=O)C(=O)N3CCCC[C@H]3C(=O)O[C@H](/C(C)=C/[C@@H]3CC[C@@H](O)[C@H](OC)C3)[C@H](C)[C@@H](O)CC1=O)[C@H](C)C[C@@H]2OC [TACROLIMUS ANHYDROUS]", "value measured": 1}
{"compound": "COc1cc2c(cc1OC)[C@@H](Cc1cc(OC)c(OC)c(OC)c1)[N+](C)(CCCOC(=O)CC/C=C/CCC(=O)OCCC[N+]1(C)CCc3cc(OC)c(OC)cc3[C@H]1Cc1cc(OC)c(OC)c(OC)c1)CC2 (stereo partly specified)", "value measured": 0}
{"compound": "C[C@H]1[C@H](NC(=O)/C(=N\\OC(C)(C)C(=O)O)c2csc(N)n2)C(=O)N1S(=O)(=O)O [AZTREONAM]", "value measured": 0}
